MEASUREMENT TARGET: T1, Human GDF15 Fc (human) (UniProt Q99988)
T1 sequence (chain, biotinylated (EZ-Link Sulfo-NHS-Biotinylation Kit) where printed as biotinylated): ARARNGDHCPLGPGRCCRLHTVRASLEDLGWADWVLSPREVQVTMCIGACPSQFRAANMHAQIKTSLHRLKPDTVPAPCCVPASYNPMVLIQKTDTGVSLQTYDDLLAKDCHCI
ASSAY NAME: Octet BLI, Fab monovalent
pKd: −log10 of the molar value.
Measured pKd of individual entries

BINDER: Clone O Fab (Fab, V domains shown) VH: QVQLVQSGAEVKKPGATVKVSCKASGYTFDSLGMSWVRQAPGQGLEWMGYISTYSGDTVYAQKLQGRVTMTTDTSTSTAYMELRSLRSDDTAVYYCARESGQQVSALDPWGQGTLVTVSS VL: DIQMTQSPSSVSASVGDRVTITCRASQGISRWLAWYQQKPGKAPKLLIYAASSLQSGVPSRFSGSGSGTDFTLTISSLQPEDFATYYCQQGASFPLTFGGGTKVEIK
pKd: 9.67
--
BINDER: Clone K Fab (Fab, V domains shown) VH: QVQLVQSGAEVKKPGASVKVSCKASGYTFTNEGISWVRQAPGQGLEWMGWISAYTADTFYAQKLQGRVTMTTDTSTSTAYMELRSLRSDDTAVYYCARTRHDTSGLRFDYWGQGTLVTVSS VL: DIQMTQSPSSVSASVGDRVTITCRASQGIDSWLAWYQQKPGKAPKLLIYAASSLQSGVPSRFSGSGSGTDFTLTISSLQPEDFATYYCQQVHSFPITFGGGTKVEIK
pKd: 8.68
--
BINDER: Clone L Fab (Fab, V domains shown) VH: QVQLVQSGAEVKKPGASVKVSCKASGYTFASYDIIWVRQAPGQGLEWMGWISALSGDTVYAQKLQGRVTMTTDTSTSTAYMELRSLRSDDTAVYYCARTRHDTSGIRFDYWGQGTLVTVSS VL: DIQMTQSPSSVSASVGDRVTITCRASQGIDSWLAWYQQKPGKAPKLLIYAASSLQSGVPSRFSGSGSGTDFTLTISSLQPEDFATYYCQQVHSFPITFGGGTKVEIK
pKd: 8.80
